Measured Growth Rate of individual entries
# Tested on: HEK-293T
# protocol-notes: Incucyte cell viability with HEK293T; note: filed as whole numbers so only -1 and 0 and 1 occur
# Format: toxicity, cell-based
# test-settings: human, 24 h, 10 µM, compound concentration 10 uM, replicate number 2, timepoint 24 hours

- molecule: "CCCOc1ccc([C@@H]2[C@@H](C(=O)O)[C@H](c3ccc4c(c3)OCO4)CN2CC(=O)Nc2c(CC)cccc2CC)cc1 [A-1806262]"
  target-entity: "HEK-293T"
  Growth Rate: 0

API: value(readout= Growth Rate, system= HEK-293T, query= CCC(=O)O[C@]1(C(=O)SCF)[C@H](C)C[C@H]2[C@@H]3C[C@H](F)C4=CC(=O)C=C[C@]4(C)[C@@]3(F)[C@@H](O)C[C@@]21C [FLUTICASONE PROPIONATE] )
1

And what about the molecule CC(=O)N1CCC(c2ccc(C(=O)NC3=NCCN3)cc2C(F)(F)F)CC1 [BI 0054] ?
0

Queued: CN1C(=O)[C@@H](N2CCc3c(nn(Cc4ccccc4)c3Br)C2=O)COc2ccccc21 [TP-030-2]
0

# iterate: CN1CC(=O)N=C1NC(=O)Nc1cccc(Cl)c1 [FENOBAM ANHYDROUS]
0

What do you have for CCC(=O)N1CC[C@H](Nc2ncnc3c2CN(c2cnc(OC)c(C(F)(F)F)c2)CC3)C1 [LENIOLISIB] ?
1

What do we get for `O=C(NC[C@H](O)CN1CCc2ccccc2C1)c1ccnc(NC2CCC2)c1` ?
1

// repeat for `O=C(Nc1cccnc1)c1cc(-c2ccnc(F)c2)ccc1OCc1ccccc1` and report
0

`Cc1cc(C)c(N)c(C#Cc2cccc(F)c2)n1.Cl` ?
1

Moving on to `Cn1cc(-c2ccc3occ(-c4ccccc4-c4ccccc4)c3n2)cn1`
0

----------
# Tested on: U2OS
# protocol-notes: Multiplex assay against U2OS
# Format: toxicity, cell-based
# test-settings: human, 12 h, 10 µM, compound concentration 10 uM, replicate 1
test-readout: Population Normal (%)
Kindly provide the numeric value in % only, without the unit symbol.

- molecule: "Cl.Cl.NC1(c2ccc(-c3nc4ccn5c(=O)[nH]nc5c4cc3-c3ccccc3)cc2)CCC1"
  Population Normal (%): 90
- molecule: "CCn1c(-c2nonc2N)nc2cnc(Oc3cccc(NC(=O)c4ccc(OCCN5CCOCC5)cc4)c3)cc21 [GSK-269962A]"
  Population Normal (%): 90
- molecule: "COc1cc2c(NC3CCN(C(C)C)CC3)nc(N3CCC(F)(F)CC3)nc2cc1OCCCN1CCCC1"
  Population Normal (%): 91
- molecule: "Nc1nc2c(c(N3CCNCC3)n1)CCC1=C2[C@@H]2CCCC[C@@H]2O1"
  Population Normal (%): 90

// returns reported Population Normal (%) for input CCC(=O)O[C@]1(C(=O)SCF)[C@H](C)C[C@H]2[C@@H]3C[C@H](F)C4=CC(=O)C=C[C@]4(C)[C@@]3(F)[C@@H](O)C[C@@]21C [FLUTICASONE PROPIONATE]
90

----------
# Tested on: U2OS
# protocol-notes: Multiplex assay against U2OS
# Format: toxicity, cell-based
# test-settings: human, 24 h, 1 µM, compound concentration 1 uM, replicate 2
test-readout: Population Normal (%)
Number only, in %; omit the unit.

Item CCC(=O)O[C@]1(C(=O)SCF)[C@H](C)C[C@H]2[C@@H]3C[C@H](F)C4=CC(=O)C=C[C@]4(C)[C@@]3(F)[C@@H](O)C[C@@]21C [FLUTICASONE PROPIONATE] has what recorded Population Normal (%)?
88

Can you handle `Nc1nc2c(c(N3CCNCC3)n1)CCC1=C2[C@@H]2CCCC[C@@H]2O1` next?
91

For `CC(C)(C)c1cnc(CSc2cnc(NC(=O)C3CCNCC3)s2)o1` then?
91

Also check `Cl.Cl.NC1(c2ccc(-c3nc4ccn5c(=O)[nH]nc5c4cc3-c3ccccc3)cc2)CCC1`
91

Field entry: CN(C)C/C=C/C(=O)Nc1cc2c(Nc3ccc(F)c(Cl)c3)ncnc2cc1O[C@H]1CCOC1.O=C(O)/C=C\C(=O)O.O=C(O)/C=C\C(=O)O [AFATINIB DIMALEATE]
89

Request: `COc1cc2c(Nc3ccc(NC(=O)c4ccccc4)cc3)ncnc2cc1OCCCN1CCOCC1`
92

----------
# maps each entry to its Growth Rate
# Test system: HEK-293T
# protocol-notes: Incucyte cell viability with HEK293T; note: filed as whole numbers so only -1 and 0 and 1 occur
# Format: toxicity, cell-based
# test-settings: human, 18 h, 10 µM, compound concentration 10 uM, replicate number 1, timepoint 18 hours
Give only the figure.

- input-smiles: "CN(CCOc1ccc(C[C@H](Nc2ccccc2C(=O)c2ccccc2)C(=O)O)cc1)c1ccccn1.O"
  target-entity: "HEK-293T"
  data-value: 1
- input-smiles: "C1=N/C2=N/c3ccc(OCCN4CCCC4)c(c3)COC/C=C\\COCc3cccc(c3)C(=C1)N2"
  target-entity: "HEK-293T"
  data-value: 0
- input-smiles: "CCCCC[C@H](O)/C=C/[C@@H]1[C@@H](C/C=C\\CCCC(=O)O)[C@@H](O)C[C@H]1O"
  target-entity: "HEK-293T"
  data-value: 0
- input-smiles: "C[C@@H]1CN(c2cc(-c3nn(C)c4ccc(OC5(C)CC5)cc34)ncn2)C[C@H](C)O1"
  target-entity: "HEK-293T"
  data-value: 0
- input-smiles: "Cc1cc(C)cc(C(=O)N(C)[C@H](Cc2ccc(-c3ccccc3)cc2)C(=O)N[C@@H](Cc2c[nH]c3ccccc23)C(=O)O)c1"
  target-entity: "HEK-293T"
  data-value: 0
- input-smiles: "COc1cc2c(NC3CCN(C(C)C)CC3)nc(N3CCC(F)(F)CC3)nc2cc1OCCCN1CCCC1"
  target-entity: "HEK-293T"
  data-value: 0

Find the recorded Growth Rate belonging to `CCC(=O)N[C@@H]1CC[C@H](C(=O)N(C)c2ccc(-c3nc4ccccc4o3)cc2)C1` and report it.
0

Try the compound `Nc1nc(NCCc2ccc(O)cc2)nc2nc(-c3ccco3)nn12`
0

And the next one, `COc1ccc(/C=C/CCCCOc2ccc(C(=O)c3cccc(C(=O)O)c3)cc2CCC(=O)O)cc1` ?
1

Same again, this time with `CNc1nc(Nc2cnn([C@H]3CCN(C4COC4)C[C@@H]3F)c2Cl)ncc1C(F)(F)F`
0

What do we get for `CCCCN(CCCC)C(=O)CN1C[C@@H](c2cc(OC)c3c(c2)OCO3)[C@H](C(=O)O)[C@H]1CC(C)(C)CCC` ?
0

Input `CCCCN(CCCC)C(=O)CN1C[C@@H](c2cc(OC)c3c(c2)OCO3)[C@H](C(=O)O)[C@H]1CC(C)(C)CCC.Cl`
0

# repeat for `c1ccc2oc(-c3csc(C4CCN(Cc5nc6ncccc6[nH]5)CC4)n3)cc2c1`
0

Request: `Oc1ccc(-c2nc3cc(O)cc(Br)c3o2)cc1`
1

----------
# System: HEK-293T
# protocol-notes: Multiplex assay against HEK293T
# Assay type: toxicity, cell-based
# test-settings: human, 48 h, 10 µM, compound concentration 10 uM, replicate 1
test-readout: Population Normal (%)
Answer with a number only, understood to be in %.

// known answers, use as guide
- compound: "CCC(=O)O[C@]1(C(=O)SCF)[C@H](C)C[C@H]2[C@@H]3C[C@H](F)C4=CC(=O)C=C[C@]4(C)[C@@]3(F)[C@@H](O)C[C@@]21C [FLUTICASONE PROPIONATE]"
  target-entity: "HEK-293T"
  data-value: 87
- compound: "COc1cc2c(NC3CCN(C(C)C)CC3)nc(N3CCC(F)(F)CC3)nc2cc1OCCCN1CCCC1"
  target-entity: "HEK-293T"
  data-value: 73

From here, focus on the item given below.
Provide the documented Population Normal (%) with HEK-293T as the system for `CNc1oc(-c2cccc3ccccc23)nc1C#N`
56

----------
Each item that follows carries a reported Population Normal (%).
# Tested on: Fibroblast
# protocol-notes: Multiplex assay against human fibroblast
# Assay type: toxicity, cell-based
# test-settings: 48 h, 10 µM, compound concentration 10 uM, replicate 2
Quick note: unit goes after the number.

- molecule: "Cc1nc(Cc2cccc(C(F)(F)F)c2)sc1-c1ccc(C(N)=O)nc1 [TP-024n]"
  data-value: "89%"
- molecule: "CC(=O)c1cc(-c2cc(C(=O)NC3CC3)ccc2C)c2ncccn12"
  data-value: "90%"
- molecule: "Nc1nc2c(c(N3CCNCC3)n1)CCC1=C2[C@@H]2CCCC[C@@H]2O1"
  data-value: "52%"
- molecule: "CCn1c(-c2nonc2N)nc2cnc(Oc3cccc(NC(=O)c4ccc(OCCN5CCOCC5)cc4)c3)cc21 [GSK-269962A]"
  data-value: "77%"

Return reported Population Normal (%); argument: `Nc1ccc(C(=O)Nc2cccc(-c3nc(N4CCOCC4)c4oc5ncccc5c4n3)c2)cn1`
32%

And for `C1=N/C2=N/c3ccc(OCCN4CCCC4)c(c3)COC/C=C\COCc3cccc(c3)C(=C1)N2` ?
85%

Input `Cc1cc2c(cc1N1C(=O)c3cccc4c(CCCO)ccc(c34)C1=O)n(C)c(=O)n2C`
90%

Again, but for `CCCn1c(=O)c2[nH]c(C34CC5CC(CC3C5)C4)nc2n(CCC)c1=O`
50%

How about `CNc1oc(-c2cccc3ccccc23)nc1C#N` ?
30%

# repeat for `CC(C)N1CCC(C)(C)c2cc(C#Cc3ccc(C(=O)O)cc3)ccc21`
15%
